target: CDK6/Cyclin D3 (Homo sapiens (Human), UniProt Q00534); assay: CDK6/Cyclin D3 ADP-Glo Kinase Assay; assay type: biochemical; details: 100 uM ATP, read-out: CDK6/ CyclinD3 IC50
Sequence (Q00534 whole entry): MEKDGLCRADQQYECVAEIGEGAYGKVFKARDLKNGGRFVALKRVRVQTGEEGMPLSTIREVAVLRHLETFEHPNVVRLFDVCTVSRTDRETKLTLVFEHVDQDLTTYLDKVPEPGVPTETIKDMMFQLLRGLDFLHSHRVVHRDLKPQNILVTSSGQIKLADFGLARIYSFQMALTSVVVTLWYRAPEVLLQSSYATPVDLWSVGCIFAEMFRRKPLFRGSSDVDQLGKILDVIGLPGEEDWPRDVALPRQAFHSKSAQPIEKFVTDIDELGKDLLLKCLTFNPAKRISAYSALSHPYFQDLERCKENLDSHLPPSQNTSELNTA
Sequence (P30281 whole entry partner): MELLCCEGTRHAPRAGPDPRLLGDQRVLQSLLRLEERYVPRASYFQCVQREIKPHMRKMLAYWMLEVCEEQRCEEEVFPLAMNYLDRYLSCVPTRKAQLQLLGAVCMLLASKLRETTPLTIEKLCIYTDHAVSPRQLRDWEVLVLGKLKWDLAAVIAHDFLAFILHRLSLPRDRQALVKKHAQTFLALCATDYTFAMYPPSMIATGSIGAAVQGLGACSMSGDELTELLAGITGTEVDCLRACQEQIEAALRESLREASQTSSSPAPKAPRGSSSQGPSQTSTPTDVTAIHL
property name: IC50

compound	endpoint value
CC(=O)N1CCC2(CC1)CCN(c1cccc3cnc(NC4CCN(S(C)(=O)=O)CC4)nc13)C2	200 to 500 nM

Now, please, on to the next compound.
## Task Requested read-out IC50, target or system CDK6/Cyclin D3 (Homo sapiens (Human), UniProt Q00534), entry "CS(=O)(=O)N1CCC(Nc2ncc3cccc(N4CCCC4)c3n2)CC1"
## Result < 200 nM
